biological target: UniProt:P00533; assay: EGFR signaling (pEGFR Tyr1068/total EGFR MSD) in A431 cells; type: cell-based; set-up: endogenous in cells; host or cells: A431, N87; conditions: ratio A431 pEGFR EC50 to HEK YVMA pHER2 EC50
Sequence (P00533 25-1210): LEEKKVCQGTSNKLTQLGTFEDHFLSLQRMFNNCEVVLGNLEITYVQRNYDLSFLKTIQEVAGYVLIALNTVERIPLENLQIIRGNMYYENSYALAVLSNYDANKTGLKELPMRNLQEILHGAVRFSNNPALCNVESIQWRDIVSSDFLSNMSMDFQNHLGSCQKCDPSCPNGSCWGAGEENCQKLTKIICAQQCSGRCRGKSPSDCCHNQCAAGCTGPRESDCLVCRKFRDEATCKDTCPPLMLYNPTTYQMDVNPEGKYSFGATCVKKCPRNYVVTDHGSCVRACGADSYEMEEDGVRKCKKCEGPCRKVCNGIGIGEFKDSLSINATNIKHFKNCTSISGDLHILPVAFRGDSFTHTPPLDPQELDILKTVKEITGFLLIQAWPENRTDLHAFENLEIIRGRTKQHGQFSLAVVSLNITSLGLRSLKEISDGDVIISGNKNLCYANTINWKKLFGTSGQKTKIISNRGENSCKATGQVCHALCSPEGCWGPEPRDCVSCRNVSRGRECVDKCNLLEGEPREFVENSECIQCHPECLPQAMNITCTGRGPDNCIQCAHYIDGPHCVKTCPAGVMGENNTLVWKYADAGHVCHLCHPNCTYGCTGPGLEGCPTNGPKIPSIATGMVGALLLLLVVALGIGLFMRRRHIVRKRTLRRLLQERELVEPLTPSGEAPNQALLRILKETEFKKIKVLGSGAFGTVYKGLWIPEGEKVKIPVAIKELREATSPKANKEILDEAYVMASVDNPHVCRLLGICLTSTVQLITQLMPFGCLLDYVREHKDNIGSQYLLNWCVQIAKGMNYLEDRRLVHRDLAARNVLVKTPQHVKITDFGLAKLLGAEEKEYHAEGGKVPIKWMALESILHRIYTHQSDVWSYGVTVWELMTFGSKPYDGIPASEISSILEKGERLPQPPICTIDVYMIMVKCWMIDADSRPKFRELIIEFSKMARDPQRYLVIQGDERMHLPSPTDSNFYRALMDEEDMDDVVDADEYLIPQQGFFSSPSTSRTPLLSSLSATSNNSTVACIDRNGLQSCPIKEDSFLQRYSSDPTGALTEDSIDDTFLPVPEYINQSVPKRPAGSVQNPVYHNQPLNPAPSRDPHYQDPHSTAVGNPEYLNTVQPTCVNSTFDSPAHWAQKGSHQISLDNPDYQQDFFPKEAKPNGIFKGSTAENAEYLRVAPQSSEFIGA
Where a name gives a salt, the structure may show the parent alone.

molecule | Selectivity A431 EC50/HEKYVMA EC50
Cc1ccc(Oc2ccc(Nc3ncnc4sc5c(c34)C(C)CN(C(=O)C=CCN(C)C(C)(C)C)C5)cc2C)cn1 (single isomer, unassigned) [Compound 178] | E (E: >1 and < 5)
Cc1ccc(Oc2ccc(Nc3ncnc4sc5c(c34)CCN(C(=O)/C=C/CN3CC4CCC(C4)C3)C5)cc2C)cn1 [Compound 16, benzenesulfonate salt] | D (D: ≥ 5 and < 10)
COc1ccc(Oc2ccc(Nc3ncnc4sc5c(c34)CCN(C(=O)/C=C/CN3CC[C@@H](CO)C3)C5)cc2C)cn1 [Compound 143] | E (E: >1 and < 5)
Cc1ccc(Oc2ccc(Nc3ncnc4sc5c(c34)CCN(C(=O)/C=C/CNC34CCC(C#N)(CC3)CC4)C5)cc2C)cn1 [Compound 72] | E (E: >1 and < 5)
Cc1ccc(Oc2ccc(Nc3ncnc4sc5c(c34)CCN(C(=O)/C=C/CN3C[C@H]4CC[C@@H](C3)O4)C5)cc2C)cn1 [Compound 66] | C (C: ≥ 10 and < 20)
Cc1cc(Nc2ncnc3sc4c(c23)CCN(C(=O)/C=C/CN(C)C)C4)ccc1Oc1ccn2ccnc2c1 [Compound 126] | B (B: ≥ 20 and < 100)
Cc1ccc(Oc2ccc(Nc3ncnc4sc5c(c34)CCN(C(=O)/C=C/CN[C@H]3CCC[C@H](O)C3)C5)cc2C)cn1 [Compound 73] | E (E: >1 and < 5)
O=C(/C=C/CN1CC2C(CO)C2C1)N1CCc2c(sc3ncnc(Nc4ccc(Oc5ccc6ncnn6c5)c(Cl)c4)c23)C1 (stereo not shown) [Compound 92] | C (C: ≥ 10 and < 20)
Cc1ccc(Oc2ccc(Nc3ncnc4sc5c(c34)CCN(C(=O)/C=C/CN3CCCCC3(C)CO)C5)cc2C)cn1 (stereo not shown) [Compound 119] | B (B: ≥ 20 and < 100)
C=CC(=O)N1[C@H](C)Cc2c(sc3ncnc(Nc4ccc(Oc5ccc(C)nc5)c(C)c4)c23)[C@H]1C (racemic) [Compound 166] | C (C: ≥ 10 and < 20)
Cc1ccc(Oc2ccc(Nc3ncnc4sc5c(c34)CCN(C(=O)/C=C/CN[C@H]3CC[C@H](OC(F)F)CC3)C5)cc2C)cn1 [Compound 69] | D (D: ≥ 5 and < 10)
COCCN1CCN(C/C=C/C(=O)N2CCc3c(sc4ncnc(Nc5ccc(Oc6ccc(C)nc6)c(C)c5)c34)C2)CC1 [Compound 59] | C (C: ≥ 10 and < 20)
Cc1ccc(Oc2ccc(Nc3ncnc4sc5c(c34)CCN(C(=O)/C=C/CN3CC(F)(CO)C3)C5)cc2C)cn1 [Compound 151] | E (E: >1 and < 5)
